Data credit: the METLIN SMRT retention time set (Domingo-Almenara et al. 2019)

# assay info: gradient 5% acetonitrile 3 min, to 50% in 2 min, to 85% in 15 min, held 3 min, 100 µL/min
# condition: column: Zorbax Extend-C18 2.1 x 50 mm; eluents: water / acetonitrile, 0.1% formic acid
# RP-LC retention time values compiled below
measurement name: RP-LC retention time (s)

{"structure notation": "O=C(Cn1cnc2nc(N3CCC(C(=O)NC4CC4)CC3)sc2c1=O)Nc1cccc(F)c1", "reading": 655}
{"structure notation": "CC(C)NC(=O)CCn1c(=O)c2cc(Cl)ccc2n2c(=O)n(Cc3ccccc3)nc12", "reading": 856}
{"structure notation": "O=c1[nH]c2ccc(NCc3ccccc3)cc2[nH]1", "reading": 571}
{"structure notation": "COc1cn(CC(=O)Nc2ccc(F)cc2F)c(CO)cc1=O", "reading": 565}
{"structure notation": "COCCN1C(=O)CCc2cc(NC(=O)c3ccc(Cl)s3)ccc21", "reading": 958}
{"structure notation": "COc1ccc(NC(=O)Cn2cccc(-c3nc(-c4ccc(OC)c(OC)c4)no3)c2=O)c(OC)c1", "reading": 788}
{"structure notation": "O=c1c2oc3ccccc3c2ncn1Cc1nc(-c2ccc3c(c2)OCO3)no1", "reading": 909}
{"structure notation": "CCOc1ccc(CCNc2nc(-c3ccc(OC)cc3)no2)cc1OCC", "reading": 1020}
{"structure notation": "CC(C)c1noc(-c2cc(=O)n(CC(=O)Nc3ccc(F)c(F)c3)c3ccccc23)n1", "reading": 1040}

###

# assay info: gradient 5% acetonitrile 3 min, to 50% in 2 min, to 85% in 15 min, held 3 min, 100 µL/min
# condition: column: Zorbax Extend-C18 2.1 x 50 mm; eluents: water / acetonitrile, 0.1% formic acid
Parameter threshold = 800 s. Response is criterion met when RP-LC retention time meets or exceeds it, else criterion not met.

{"compound": "Cc1nc2cc(-c3noc(CNC(=O)c4cccs4)n3)ccc2o1", "assigned category": "criterion not met"}
{"compound": "COc1ccc(CNC(=O)Nc2c(-c3cccc(C)c3)nc3ccccn23)cc1", "assigned category": "criterion not met"}
{"compound": "O=C(Cc1cccc(Cl)c1)N1CC2CN(S(=O)(=O)c3cccc(F)c3)CC(C1)O2", "assigned category": "criterion met"}
{"compound": "CC(Cc1ccco1)NC(=O)CC1CCN(C(=O)c2ccc3nc(-c4ccccc4)oc3c2)CC1 (centres undefined)", "assigned category": "criterion met"}
{"compound": "COC(=O)CNC(=O)N1CCCCCC1c1ccc(C)cc1 (centres undefined)", "assigned category": "criterion met"}
{"compound": "COc1ccc(S(=O)(=O)N2C[C@H](F)C[C@@H]2C(=O)N2CCOCC2)cc1Cl", "assigned category": "criterion not met"}
{"compound": "CC(C)Oc1ccc(-c2noc(Cn3cnc4c(oc5ccccc54)c3=O)n2)cc1", "assigned category": "criterion met"}
{"compound": "CC(=O)Nc1nc2ccc(CC(=O)Nc3ccc(F)cc3)cc2s1", "assigned category": "criterion not met"}
{"compound": "Cc1cccc(C)c1NC(=O)Cn1c(C)nc2onc(C)c2c1=O", "assigned category": "criterion met"}

###

# RP-LC retention time values compiled below
# assay info: gradient 5% acetonitrile 3 min, to 50% in 2 min, to 85% in 15 min, held 3 min, 100 µL/min
# condition: column: Zorbax Extend-C18 2.1 x 50 mm; eluents: water / acetonitrile, 0.1% formic acid
measurement name: RP-LC retention time

{"molecule": "CCN(C(=O)CC(C)S(=O)(=O)c1ccc2c(c1)CCN2C(=O)C1CC1)c1ccccc1 (centres undefined)", "reading": "867 s"}
{"molecule": "Cc1noc(C2(NC(=O)Nc3cccc(Cl)c3C)CCCCC2)n1", "reading": "872 s"}
{"molecule": "COc1cccc(-c2nnc(Cc3nc(-c4ccccc4F)no3)o2)c1", "reading": "1020 s"}
{"molecule": "CC(C)N1CCN(c2ncc(C(=O)Nc3ccccc3)c(N)n2)CC1", "reading": "591 s"}
{"molecule": "CCCn1cc(C(=O)NCc2ccc(F)cc2F)c(S(=O)(=O)N2CCC(C)CC2)n1", "reading": "1100 s"}
{"molecule": "CN(C)c1cccc(C(=O)N2CCC3(CC2)N=C(c2ccc(Br)cc2)NO3)c1", "reading": "867 s"}
{"molecule": "O=c1n(Cc2nc(-c3ccc(F)c(Br)c3)no2)nc2ccc(-c3ccccc3)nn12", "reading": "1010 s"}
{"molecule": "CCCNC(=O)N1CCN(Cc2nc3cc(-c4ccccc4)ccc3o2)CC1", "reading": "722 s"}
{"molecule": "O=C(Cc1nc(-c2cnccn2)n[nH]1)NCc1ccccc1", "reading": "583 s"}
{"molecule": "COc1cccc(NC(=O)c2sc(-c3cn(C(C)C)c4ncccc34)nc2C)c1", "reading": "1060 s"}
{"molecule": "COc1ccc(NC(=O)C2CCN(S(C)(=O)=O)c3cc(C)ccc3O2)cc1 (centres undefined)", "reading": "872 s"}
{"molecule": "CN(C)C[C@@H]1CN(C2CCOCC2)C[C@H]1NS(=O)(=O)c1ccc(C#N)cc1", "reading": "524 s"}
{"molecule": "C=CCNc1ncnc2ccc(Br)cc12", "reading": "671 s"}
{"molecule": "CN(C)CCNC(=O)c1ccc(CS(=O)c2ccc(Cl)cc2)o1 (centres undefined)", "reading": "591 s"}
{"molecule": "Cc1ccc(Cn2c(N3CCCC(C(=O)Nc4cc(C)cc(C)c4)C3)nc3ccsc3c2=O)cc1 (centres undefined)", "reading": "1160 s"}
{"molecule": "CCN1C(=O)COc2cc(-c3noc(C(=O)NCC4CCCO4)n3)ccc21 (centres undefined)", "reading": "783 s"}
{"molecule": "Cc1cccc(C)c1NC(=O)Cn1cnc2onc(C)c2c1=O", "reading": "731 s"}
{"molecule": "Cc1cc(-c2nn3c(-c4cccc(F)c4)nnc3s2)c2ccccc2n1", "reading": "887 s"}
{"molecule": "CN(C)c1cc(C(N)=O)c2ccccc2n1", "reading": "694 s"}
{"molecule": "CCC(=O)N1CCCN(C2=NS(=O)(=O)C(c3ccc(C)c(C)c3)=C2C)CC1", "reading": "766 s"}
{"molecule": "CCCS(=O)(=O)N1CC(=O)N(c2ccc(F)cc2C)C(C)(C(=O)NC2CCCCC2)C1 (centres undefined)", "reading": "925 s"}
{"molecule": "CCOc1ccc(/C=C/C(=O)Nc2nc(-c3ccc(C)cc3)c(C)s2)cc1", "reading": "726 s"}
{"molecule": "O=S(=O)(Cc1ccc(Cl)cc1)N1CCC(CN2CCCCCC2)CC1", "reading": "683 s"}
{"molecule": "CCC(=O)N1CCc2nc(N3CCN(C(=O)CCOC)CC3)sc2C1", "reading": "875 s"}
{"molecule": "CC1(C)CC(=O)C2=C(C1)N(CC1CCCO1)C(=O)C2(NC(=O)c1ccc(Cl)cc1)C(F)(F)F (centres undefined)", "reading": "975 s"}
{"molecule": "CCc1ccc(NC(=O)Cn2c(C(C)C)nc3cc4c(cc32)OCCO4)cc1", "reading": "742 s"}
{"molecule": "CC(=O)NCc1nc(-c2ccc(N3CCSCC3)nc2)no1", "reading": "653 s"}
{"molecule": "CN(C)c1nn(CC(=O)NCc2ccc3c(c2)OCO3)c(=O)c2ccccc12", "reading": "765 s"}
{"molecule": "Cc1noc(C)c1CN1CCN(C(=O)c2cc(F)cc(F)c2)CC1", "reading": "563 s"}
{"molecule": "Cc1cc(C)c2c(n1)SCC(=O)N2CC(=O)NCCN(C)C1CCCCC1", "reading": "585 s"}
{"molecule": "Cc1ccc(Cl)cc1N1CCN(C(=O)c2[nH]c(C)c(S(=O)(=O)N3CCC(C)CC3)c2C)CC1", "reading": "1190 s"}
{"molecule": "CCOC(=O)c1cnc2nc(C)ccc2c1Nc1cc(F)ccc1F", "reading": "726 s"}
{"molecule": "COc1ccc(OC)c(CNC(=O)C2CCCN(c3ccc(=O)n(-c4ccc(C)c(Cl)c4)n3)C2)c1 (centres undefined)", "reading": "924 s"}
{"molecule": "COc1cccc(C(=O)N2C[C@@H]3C[C@H]2C[C@@H]3NC(=O)c2cccs2)c1OC", "reading": "698 s"}
{"molecule": "Cc1ccc(Nc2c(-c3ccc(N(C)C)cc3)nc3ccc(C)cn23)cc1", "reading": "839 s"}
{"molecule": "O=C(OCc1ccccc1)c1nc2ccccc2nc1N1CCN(c2ccccn2)CC1", "reading": "798 s"}
{"molecule": "Cc1ccc(NC(=O)N2CCC(c3nc(C(=O)N4CCOCC4)c(C)o3)CC2)c(C)c1", "reading": "709 s"}
{"molecule": "CN1C(=O)C2CCCCN2c2ccc(C(=O)NCCCN(C)C3CCCCC3)cc21 (centres undefined)", "reading": "655 s"}
{"molecule": "CNC(=O)c1cc2nc(N(C)C)n(-c3ccc(OC)cc3)c2s1", "reading": "888 s"}
